Catalogue of exon inclusion enrichment index values
B1: mRNA-splicing (parent)
chain: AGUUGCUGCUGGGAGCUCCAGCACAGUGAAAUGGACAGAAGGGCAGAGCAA

- Variants of: B1
- assay_method_text: exon inclusion enrichment index; higher = more inclusion; WT1 exon 5 minigene, HEK293
Write no unit; give the number alone.

// worked examples, exon inclusion enrichment index included
mutation_list="C6A U7C C9A U10C G28A A29C" observed=2.55
mutation_list="G5C C6U G8C C9U U10C G34C" observed=0.84
mutation_list="G5C C6U G8C C9U U10C G41U G42C" observed=2.93

Query: Please report the measured exon inclusion enrichment index for G5A U7C G8A U10C C19A A20U
Response: 0.815

Query: Please report the measured exon inclusion enrichment index for U3A G5U G8U C9U
Response: 0.513

Query: Please report the measured exon inclusion enrichment index for A39C A40G
Response: 0.223
